solubility for assorted compounds
- ASSAY_METHOD_TEXT: Solubility study of naltrexone and methylphenidate in common solvents and household items (visual examination)
- Assay type: physicochemical
- ASSAY_SETUP: ethanol, organic solvent or mixture, thermodynamic from solid; read-out: Solubility
Where a name gives a salt, the structure may show the parent alone.

COMPOUND	solubility
COC(=O)C(c1ccccc1)C1CCCCN1 (centres unmarked) [Methylphenidate HCl]	> 1000 µg/mL

Consider now this further compound.
Exam item: Returns the measured solubility for the input compound. Input: O=C1CC[C@@]2(O)[C@H]3Cc4ccc(O)c5c4[C@@]2(CCN3CC2CC2)[C@H]1O5 [Naltrexone HCl]
Marked response: > 1000 µg/mL
